# Test system: UACC-257 melanoma
# Test protocol: NCI-60 one-dose screen, 48 h
# Condition notes: 10 µM unless noted
About 83,000 compounds went through this panel and 20% of them were active in at least one assay; those are over-represented in the sample as a whole. Active and inactive are the calls of the source. Rule for the calls: active = growth percent below 10; inactive = the rest.
Would you mind answering with one of these outcomes? active, inactive

Given "COc1cccc(-c2c(C#N)c(-c3ccc(Cl)cc3)nc3n[nH]c(-c4ccc(Cl)cc4)c23)c1" , state the outcome it received in this test.
inactive

Likewise for "NS(=O)(=O)c1ccc(-n2cc(-c3cccc(NC(=O)c4cc(C(F)(F)F)cc(C(F)(F)F)c4)c3)nn2)cc1" ?
inactive

Likewise for "CC(C)c1sc(NC(=O)c2cc(NC(=O)c3cc(NC(=O)c4nccn4C)cn3C)cn2C)nc1C(=O)NCCCN(C)C" ?
inactive

Likewise for C=C1CCC2C3(C)COC(c4cc(F)cc(F)c4)OC3CCC2(C)C1CC(O)C1=CCOC1=O (centres undefined) ?
inactive

Likewise for "Cn1cc(-c2cc(N)n3nc(-c4c[nH]c5ccccc45)cc3n2)c2cccnc21" ?
inactive

Likewise for Cc1nc(Nc2ncc(C(=O)Nc3c(C)cccc3Cl)s2)cc(N2CCN(CCCNC(=O)COc3ccc(C4CCC(=O)NC4=O)cc3)CC2)n1 (centres undefined) ?
inactive

Likewise for "COc1ccc2[nH]cc(-c3nnc(N)nc3-c3cn(C)c4ncc(Br)cc34)c2c1" ?
inactive

Likewise for "CCCCc1c(Nn2cnnn2)no[n+]1[O-]" ?
inactive

Likewise for "COc1ccc(/C=C/c2nc3ccccc3nc2Nc2cccc(C)c2)cc1" ?
inactive

Likewise for COc1ccc(C2=NN(c3ccccc3)C(c3ccc(OCc4ccccc4)c(OC)c3)C2)cc1OC (centres undefined) ?
inactive

Likewise for C#CCOc1cc(N(CC)CC)ccc1C(C(=O)NC(C)(C)C)N(C(=O)C1CCc2cc(F)ccc2O1)c1ccc(F)cc1 (centres undefined) ?
inactive

Likewise for "O=C(/C=C/Nc1ccc(Cl)cc1)c1ccc2c(c1)Nc1ccccc1S2" ?
inactive

Likewise for "O=C1N/C(=N\c2nccs2)S/C1=C\C=C/c1ccccc1" ?
active

Likewise for "C#CCOc1ccc(/C=N/Nc2nc(-c3ccc(F)cc3)cs2)cc1OC" ?
inactive

Likewise for "Nc1nnc(-c2c[nH]c3ncc(Br)cc23)c(-c2c[nH]c3ccc(F)cc23)n1" ?
inactive

Likewise for "CSc1ccccc1NC(=O)c1ccc2nnn(/C(C#N)=C/c3ccccn3)c2c1" ?
active

Likewise for "Cn1cc(-c2cc3nc(-c4cn(C)c5ncccc45)cc(N)n3n2)c2ccccc21" ?
active

Likewise for "O=C1NC(=O)c2c1c1c3cc(Br)ccc3[nH]c1c1oc3ccc(F)cc3c21" ?
inactive

Likewise for "COc1cc2c3c(n(CCCN4CCC[C@@H]4CO)c(=O)c2cc1OC)-c1cc2c(cc1C3=O)OCO2" ?
inactive

Hello, the source for this data is PubChem BioAssay (NCI), in case you need it.
